Please go through the items and note down their CC50.
- Method Notes: Cytotoxicity in parallel to the 229E CPE assay, without virus infection, CellTiter Glo
- Measurement Context: 229E CC50, without virus infection

Query: Please give the measured CC50 for this molecule: CC1(C)C[C@H](C(=O)N(c2ccc(C(C)(C)C)cc2)C(C(=O)NC2CCCCC2)c2cccnc2)N(C#N)C1 (single isomer, unassigned) [Compound 268 Isomer 2]
Result: 10 to 30 µM

Query: Same thing, different molecule: CC(C)(C)c1ccc(N(C(=O)C2CN(C#N)C2)C(C(=O)NC2CCCCC2)c2cccnc2)cc1 (centres unmarked)
Result: 10 to 30 µM

Query: Same thing, different molecule: CC(C)(C)c1ccc(N(C(=O)c2cnc[nH]2)C(C(=O)NC2CCCCC2)c2cncnc2C#N)cc1 (centres unmarked)
Result: > 30 µM

Query: Same thing, different molecule: Cc1nnsc1C(C(=O)NC1CCCCC1)N(C(=O)c1cnc[nH]1)c1ccc(C(C)(C)C)cc1 (centres unmarked)
Result: > 30 µM

Query: Same thing, different molecule: CC(C)(C)c1ccc(N(C(=O)[C@H]2COCCN2C#N)C(C(=O)NC2CCCCC2)c2cccnc2)cc1 (single isomer, unassigned) [Compound 202 Isomer 2]
Result: > 30 µM

Query: Same thing, different molecule: CC(C)(C)c1ccc(N(C(=O)[C@H]2C[C@@H](O)CN2C#N)C(C(=O)NC2CCCCC2)c2cccnc2)cc1 (single isomer, unassigned) [Compound 254 Isomer 2]
Result: > 30 µM

Query: Same thing, different molecule: CC(C)(C)c1ccc(N(C(=O)c2nsnc2Cl)C(C(=O)NC2CCCCC2)c2cccnc2)cc1 (centres unmarked)
Result: > 30 µM

Query: Same thing, different molecule: CN1CCN(C#N)C(C(=O)N(c2ccc(C(C)(C)C)cc2)C(C(=O)NC2CCCCC2)c2cccnc2)C1 (single isomer, unassigned) [Compound 217 Isomer 2]
Result: > 30 µM

Query: Same thing, different molecule: CC(C)(C)c1ccc(N(C(=O)c2nccnc2C#N)C(C(=O)NC2CCCCC2)c2cccnc2)cc1 (centres unmarked)
Result: > 30 µM

Query: Same thing, different molecule: C[C@@H]1CC[C@H](C(=O)N(c2ccc(C(C)(C)C)cc2)C(C(=O)NC2CCCCC2)c2cccnc2)N1C#N (single isomer, unassigned) [Compound 244 Isomer 1]
Result: > 30 µM

Query: Same thing, different molecule: CC(C)(C)c1ccc(C(C(=O)c2cnc[nH]2)C(C(=O)NC2CCCCC2)c2nccnc2C#N)cc1 (centres unmarked)
Result: > 30 µM

Query: Same thing, different molecule: CC(C)(C)c1ccc(N(C(=O)c2cnc[nH]2)C(C(=O)NC2CCCCC2)c2cccnc2)c(C#N)n1 (centres unmarked)
Result: > 30 µM

Query: Same thing, different molecule: C[C@@H]1C[C@H](C(=O)N(c2ccc(C(C)(C)C)cc2)C(C(=O)NC2CCCCC2)c2cccnc2)N(C#N)C1 (single isomer, unassigned) [Compound 232 Isomer 2]
Result: 10 to 30 µM

Query: Same thing, different molecule: CC(C)(C)c1ccc(N(C(=O)c2c[nH]cn2)C(C(=O)NC2CCCCC2)c2cccnc2C#N)cc1 (centres unmarked)
Result: > 30 µM
